- measured_on: Trace amine-associated receptor 1 (Homo sapiens, UniProt Q96RJ0)
- Sequence (Q96RJ0 whole entry): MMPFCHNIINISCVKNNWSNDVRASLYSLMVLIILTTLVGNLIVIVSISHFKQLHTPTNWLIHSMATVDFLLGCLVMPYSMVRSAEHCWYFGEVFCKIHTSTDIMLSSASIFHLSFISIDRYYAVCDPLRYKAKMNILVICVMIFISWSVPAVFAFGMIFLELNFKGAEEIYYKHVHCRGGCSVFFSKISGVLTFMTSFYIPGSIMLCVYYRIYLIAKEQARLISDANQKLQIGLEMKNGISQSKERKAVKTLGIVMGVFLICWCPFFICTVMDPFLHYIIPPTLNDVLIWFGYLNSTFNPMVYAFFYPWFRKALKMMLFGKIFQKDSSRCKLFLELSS
- experiment_notes: Counterscreen for agonists of the human trace amine associated receptor 1 (hTAAR1): Fluorescence-based cell-based high throughput dose response assay to identify hTAAR1 agonist that also desensitize TAAR1 receptor response.
- Format: functional
The source made the active and inactive calls.
Mark one answer only. Choices: active, inactive

Could you please tell me the result logged for `O=C(Nc1ccc(F)cc1)Nc1ccc(Oc2ncnc3cc(Cl)ccc23)nc1` in this assay?
active

Could you please tell me the result logged for O=C(O)c1ccccc1C(=O)NCC(O)c1ccccc1 (centres undefined) in this assay?
inactive

Could you please tell me the result logged for `CCCCc1c(-c2ccccc2OC)ncn1CCc1cccc(F)c1` in this assay?
active

Could you please tell me the result logged for NCCc1ccc(O)cc1 [TYRAMINE] in this assay?
active

* * *

This document collects AC50 values reported for Cytochrome P450 1A2 (Homo sapiens, UniProt P05177).

Find AC50 (Cytochrome P450 1A2 (Homo sapiens, UniProt P05177)) for the entry `C/C(=N/OC(=O)c1cccc(Cl)c1)c1nccs1`
31.6 µM (inconclusive)

Find AC50 (Cytochrome P450 1A2 (Homo sapiens, UniProt P05177)) for the entry `O=c1c2ccccc2c(-c2ccccc2)nn1Cc1ccc(Cl)cc1`
0.0708 µM (inconclusive)

Find AC50 (Cytochrome P450 1A2 (Homo sapiens, UniProt P05177)) for the entry CCC/C=C(\CCC)C(NS(=O)(=O)c1cccc2cccnc12)c1ccc(-c2ccccc2)cc1 (stereo unspecified)
0.794 µM (inconclusive)

Find AC50 (Cytochrome P450 1A2 (Homo sapiens, UniProt P05177)) for the entry `CCC(=O)Nc1c2c(nc3c1CCC3)CCCC2`
15.8 µM (inconclusive)

Find AC50 (Cytochrome P450 1A2 (Homo sapiens, UniProt P05177)) for the entry CCCc1cc2c(n1Cc1cccc(Cl)c1)C(C)C1CN(C(=O)c3ccccc3)C(C)(C(=O)OC)C21 (stereo unspecified)
31.6 µM (inconclusive)

Find AC50 (Cytochrome P450 1A2 (Homo sapiens, UniProt P05177)) for the entry `O=C(Nc1ccc(F)cc1F)c1cccnc1Oc1cccc(C(F)(F)F)c1`
0.794 µM (inconclusive)

* * *

- measured_on: DNA repair protein RAD52 homolog (Homo sapiens)
- Sequence (P43351 whole entry): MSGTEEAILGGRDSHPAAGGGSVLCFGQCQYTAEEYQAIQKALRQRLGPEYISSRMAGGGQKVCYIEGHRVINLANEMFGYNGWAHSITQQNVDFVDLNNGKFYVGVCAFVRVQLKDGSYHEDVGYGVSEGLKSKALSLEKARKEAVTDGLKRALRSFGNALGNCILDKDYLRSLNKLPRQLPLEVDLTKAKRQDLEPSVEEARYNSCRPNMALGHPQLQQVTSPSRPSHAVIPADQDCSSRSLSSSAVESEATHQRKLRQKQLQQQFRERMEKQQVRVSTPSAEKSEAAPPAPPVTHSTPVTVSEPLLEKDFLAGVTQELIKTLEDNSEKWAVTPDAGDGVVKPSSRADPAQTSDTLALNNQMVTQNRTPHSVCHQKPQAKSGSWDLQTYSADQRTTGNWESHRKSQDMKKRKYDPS
- Assay type: functional, biochemical
The source made the active and inactive calls.
Assignment: determine reported AC50 for the given molecules.

Find AC50 (DNA repair protein RAD52 homolog (Homo sapiens)) for the entry `CCN(CC)Cc1cc(Nc2ccnc3cc(Cl)ccc23)ccc1O`
10 µM (active)

Find AC50 (DNA repair protein RAD52 homolog (Homo sapiens)) for the entry CCN1CCCC(OC(=O)c2cc(-c3ccc(C)cc3)nc3ccccc23)C1 (stereo not given)
8.59 µM (active)

Find AC50 (DNA repair protein RAD52 homolog (Homo sapiens)) for the entry `COc1ccccc1Nc1nc(NCCCN(C)C)nc(N)c1[N+](=O)[O-]`
5.59 µM (active)

Find AC50 (DNA repair protein RAD52 homolog (Homo sapiens)) for the entry `CCCCCCCCCCCCCCCC[n+]1cccc2ccccc21`
3.67 µM (active)

Find AC50 (DNA repair protein RAD52 homolog (Homo sapiens)) for the entry `COc1cc2nc(N(CCCN(C)C)C(=O)c3ccc(S(=O)(=O)N4CCc5ccccc54)cc3)sc2cc1OC`
6.54 µM (active)

Find AC50 (DNA repair protein RAD52 homolog (Homo sapiens)) for the entry [H]/N=C(\N/C(=N/[H])NCCCCCCNC(=N)NC(=N)Nc1ccc(Cl)cc1)Nc1ccc(Cl)cc1 [CHLORHEXIDINE]
1.7 µM (active)

Find AC50 (DNA repair protein RAD52 homolog (Homo sapiens)) for the entry `COc1ccc2c(c1)c[n+](C)c1c3cc(OC)c(OC)cc3ccc21`
0.558 µM (active)

Find AC50 (DNA repair protein RAD52 homolog (Homo sapiens)) for the entry `Cc1cc(N2CCN(C)CC2)nc2ccc(NC(=S)N3CCN(c4ccc(Cl)cc4)CC3)cc12`
3.07 µM (active)

Find AC50 (DNA repair protein RAD52 homolog (Homo sapiens)) for the entry CC(=O)C1CCC2C3CC=C4CC(SC(=N)N)CCC4(C)C3CCC12C (stereo not given)
7.48 µM (active)

Find AC50 (DNA repair protein RAD52 homolog (Homo sapiens)) for the entry `Cc1ccc(C(=O)N/C(=C\c2ccc(-c3cccc([N+](=O)[O-])c3)o2)C(=O)NCCCN(C)C)cc1`
24.7 µM (active)
